Please find below Ki data on Carbonic anhydrase 1 (Homo sapiens) compiled from the literature.

Recorded Ki, per entry:
1. CC(C)c1cc(-c2ccccc2)cc(C(C)C)[n+]1CC(=O)OCc1ccc(S(N)(=O)=O)cc1    1770 nM
2. Cc1cc(-c2ccccc2)cc(C)[n+]1CC(=O)Nc1ccc2nc(S(N)(=O)=O)sc2c1    10 nM
3. NS(=O)(=O)c1ccc(NC(=O)CN(CCN(CC(=O)O)c2ccccc2O)c2ccccc2O)c(F)c1    450 nM
4. NC(=O)CC[C@H](NC(=O)c1ccc(Cl)c(S(N)(=O)=O)c1)C(=O)O    250 nM

Now look at this one.
Ask | For Carbonic anhydrase 1 (Homo sapiens), give the measured Ki of the entry `Cc1ccc(-c2nc(SCC(=O)c3ccc(Br)cc3)nc(Nc3ccc(S(N)(=O)=O)cc3)c2C#N)cc1`
Reply | > 20000 nM

###

Please find below log10 Ki data on UniProtKB P00915 compiled from the literature.
All values: base-10 log of Ki in µM.

1) CC(=O)OC[C@H]1O[C@@H]([Se]c2ccc(S(N)(=O)=O)c(N)c2)[C@H](OC(C)=O)[C@@H](OC(C)=O)[C@H]1OC(C)=O    0.98
2) CC(C)c1cc(-c2ccccc2)cc(C(C)C)[n+]1CC(=O)Nc1ccccc1S(N)(=O)=O    1.48
3) COC(=O)CS(=O)(=O)c1cc(Cl)c(C)cc1S(N)(=O)=O    0.71
4) CCN(CC(=O)N(CCc1ccc(S(N)(=O)=O)cc1)Cc1ccccc1)Cc1ccccc1    0.62
5) CNCC(=O)Nc1ccccc1S(N)(=O)=O    1.31
6) c1ccc2c(c1)c1c(n2Cc2ccc(Cn3c4c(c5ccccc53)CCC4)cc2)CCC1    1.63

Ask | For UniProtKB P00915, give the measured log10 Ki of the entry `NS(=O)(=O)c1ccc(-n2ncc(N3CCCCCC3)cc2=O)cc1`
Reply | -1.05

Ask | For UniProtKB P00915, give the measured log10 Ki of the entry `CN(CC(=O)Nc1nnc(S(N)(=O)=O)s1)C(=N)N`
Reply | -0.77

Ask | For UniProtKB P00915, give the measured log10 Ki of the entry `NS(=O)(=O)c1nc2ccc(NC(=O)CN(CCN(CC(=O)O)CC(=O)Nc3ccc4nc(S(N)(=O)=O)sc4c3)CC(=O)O)cc2s1`
Reply | -1.48

Ask | For UniProtKB P00915, give the measured log10 Ki of the entry `CCCC(CCC)C(=O)NNc1ccc(S(N)(=O)=O)cc1`
Reply | 1.55

Ask | For UniProtKB P00915, give the measured log10 Ki of the entry `COCCOC(=O)c1ccc(S(=O)(=O)/N=c2/sc(S(N)(=O)=O)nn2C)cc1`
Reply | -1.80

Ask | For UniProtKB P00915, give the measured log10 Ki of the entry `O=[N+]([O-])c1ccc2c(c1)B(O)OC2`
Reply | 0.80

Ask | For UniProtKB P00915, give the measured log10 Ki of the entry `NS(=O)(=O)c1ccc(-c2cn(S(=O)(=O)c3ccccc3)c3ccccc23)cc1`
Reply | -1.08

Ask | For UniProtKB P00915, give the measured log10 Ki of the entry `CCOc1ccc2c(c1)CCN=C2c1ccc(S(N)(=O)=O)cc1`
Reply | 0.02

Ask | For UniProtKB P00915, give the measured log10 Ki of the entry `NS(=O)(=O)c1nnc(NC(=O)CN(CCOCCOCCN(CC(=O)O)CC(=O)Nc2nnc(S(N)(=O)=O)s2)CC(=O)O)s1`
Reply | -1.26

###

Please find below Ki data on Carbonic anhydrase 1 (Homo sapiens, UniProt P00915) compiled from the literature.
Respond numerically; units are µM and should not be typed.

Recorded Ki, per entry:
1. NS(=O)(=O)c1ccc(NC(=S)Nc2cccc(I)c2)cc1    4.86
2. CCC(Sc1nc(-c2cccc(OC)c2)c(C#N)c(=O)[nH]1)C(=O)Nc1ccc(S(N)(=O)=O)cc1 (stereo unspecified)    0.032
3. NS(=O)(=O)c1ccc(NC(=S)NCC(=O)NCC(=O)O)cc1    0.054
4. Cc1cc(C)[n+](CCc2ccc(S(N)(=O)=O)cc2)c(C(C)C)c1    2

Now look at this one.
Ask | For Carbonic anhydrase 1 (Homo sapiens, UniProt P00915), give the measured Ki of the entry COc1ccc(C2CC(c3cccc(OS(N)(=O)=O)c3)=NN2C(C)=O)cc1 (stereo unspecified)
Reply | 0.172

###

Please find below log10 Ki data on Carbonic anhydrase 1 (Homo sapiens, UniProt P00915) compiled from the literature.
All values: base-10 log of Ki in nM.

Recorded log10 Ki, per entry:
1) C[C@H](CCC(=O)NCCc1ccc(S(N)(=O)=O)cc1)[C@H]1CC[C@H]2[C@@H]3CC[C@@H]4C[C@H](O)CC[C@]4(C)[C@H]3C[C@H](O)[C@]12C    3.18
2) NS(=O)(=O)c1ccc(COC(=O)CN(CCN(CC(=O)O)CC(=O)O)CC(=O)O)cc1    2.93
3) CC1(C)OB(c2ccc(N/C(S)=N/c3ccc(S(=O)(=O)Nc4ccc(S(N)(=O)=O)cc4)cc3)cc2)OC1(C)C    1.69
4) NCC(=O)NCC(=O)Nc1ccc(S(N)(=O)=O)cc1Br    2.76
5) NS(=O)(=O)c1nnc(NS(=O)(=O)c2ccc(C(=O)O)cc2)s1    1.65

Ask | For Carbonic anhydrase 1 (Homo sapiens, UniProt P00915), give the measured log10 Ki of the entry `NS(=O)(=O)c1ccc2nc(NC(=O)CSC(=S)N3CCOCC3)sc2c1`
Reply | 0.94

Ask | For Carbonic anhydrase 1 (Homo sapiens, UniProt P00915), give the measured log10 Ki of the entry `NS(=O)(=O)c1ccc(CCNC(=O)CN2C(=O)NC3(CCCC3)C2=O)cc1`
Reply | 3.80

###

Please find below pKi data on Carbonic anhydrase 1 (Homo sapiens) compiled from the literature.
In plain terms, pKi is the concentration in mol/L turned into minus its base-10 logarithm.

1) CNCC(=O)NS(=O)(=O)c1nc2ccc(O)cc2s1    7.96
2) NS(=O)(=O)c1ccccc1NC(=O)Nc1c(F)c(F)c(F)c(F)c1F    5.76

Now look at this one.
Ask | For Carbonic anhydrase 1 (Homo sapiens), give the measured pKi of the entry `N/C(=N\S(=O)(=O)c1ccccc1SCc1cccc(C(F)(F)F)c1)NNc1nc(Cl)nc(Nc2cccc(S(N)(=O)=O)c2)n1`
Reply | 6.47

###

Please find below pKi data on Carbonic anhydrase 1 (Homo sapiens, UniProt P00915) compiled from the literature.
In plain terms, pKi is the concentration in mol/L turned into minus its base-10 logarithm.

Recorded pKi, per entry:
1) O=[N+]([O-])c1cccc(S(=O)(=O)NO)c1    4.77
2) NS(=O)(=O)c1ccc(N/C(S)=N/C(CS)C(=O)O)cc1 (stereo unspecified)    7.60

Ask | For Carbonic anhydrase 1 (Homo sapiens, UniProt P00915), give the measured pKi of the entry NS(=O)(=O)c1ccc(-c2cn(C3O[C@H](CO)[C@@H](O)[C@H](O)[C@@H]3O)nn2)cc1 (single isomer, unassigned)
Reply | 8.55

Ask | For Carbonic anhydrase 1 (Homo sapiens, UniProt P00915), give the measured pKi of the entry `COc1ccc(C(=O)NN)cc1`
Reply | 5.11

Ask | For Carbonic anhydrase 1 (Homo sapiens, UniProt P00915), give the measured pKi of the entry `CN(C)CCOC(=O)c1ccc(S(=O)(=O)Nc2nnc(S(N)(=O)=O)s2)cc1`
Reply | 7.96

###

Please find below Ki data on Carbonic anhydrase 1 (Homo sapiens) compiled from the literature.
Respond numerically; units are nM and should not be typed.

1. NS(=O)(=O)c1ccc(NC(=O)CN(CCN(CC(=O)O)c2ccccc2O)c2ccccc2O)c(Cl)c1    870
2. CC(C)[C@H](NC(=O)c1ccc(Cl)c(S(N)(=O)=O)c1)C(=O)O    130

Ask | For Carbonic anhydrase 1 (Homo sapiens), give the measured Ki of the entry `N/C(=N\S(=O)(=O)c1ccccc1SCc1cccc2ccccc12)NNc1nc(Cl)nc(Nc2ccc(S(N)(=O)=O)cc2)n1`
Reply | 733

Ask | For Carbonic anhydrase 1 (Homo sapiens), give the measured Ki of the entry `NS(=O)(=O)c1ccc(CCC(=O)c2cccc(C(=O)O)n2)cc1`
Reply | 906

Ask | For Carbonic anhydrase 1 (Homo sapiens), give the measured Ki of the entry `NS(=O)(=O)c1ccc(CCOC(=O)CNCC(=O)O)cc1`
Reply | 1200

###

Please find below Ki data on UniProtKB P00915 compiled from the literature.
Respond numerically; units are µM and should not be typed.

Recorded Ki, per entry:
1) NS(=O)(=O)c1ccc(-c2noc(-c3ccncc3)n2)cc1    0.048
2) CC(=O)N1N=C(c2ccc(OS(N)(=O)=O)cc2)CC1c1ccc([N+](=O)[O-])cc1 (stereo not drawn)    3.21

Ask | Supply Ki value. Item: `NS(=O)(=O)c1cccc(NC(=O)CN(CC(=O)O)CC(=O)O)c1`
Reply | 23

Ask | Supply Ki value. Item: `NS(=O)(=O)c1cccc(NC(=O)Nc2ccccc2F)c1`
Reply | 0.737

Ask | Supply Ki value. Item: `NS(=O)(=O)c1cc(S(N)(=O)=O)c(C(=O)c2cccc(C(=O)O)n2)cc1Cl`
Reply | 0.6

Ask | Supply Ki value. Item: `Cc1cc(-c2ccccc2)cc(C)[n+]1CC(=O)NCCc1ccc(S(N)(=O)=O)cc1`
Reply | 0.72

Ask | Supply Ki value. Item: `Nc1c(F)cc(S(N)(=O)=O)cc1Cl`
Reply | 3.8

Ask | Supply Ki value. Item: `NS(=O)(=O)c1nnc(NS(=O)(=O)c2c(F)c(F)cc(F)c2F)s1`
Reply | 0.013

Ask | Supply Ki value. Item: `NS(=O)(=O)c1nnc(NC(=O)CCNC(=O)CNCC(=O)O)s1`
Reply | 0.28

Ask | Supply Ki value. Item: `NS(=O)(=O)c1ccc(NC(=O)CN(CCOCCOCCN(CC(=O)O)CC(=O)Nc2ccc(S(N)(=O)=O)cc2Cl)CC(=O)O)c(Cl)c1`
Reply | 0.15

Ask | Supply Ki value. Item: `Cc1cc(-c2ccccc2)cc(C)[n+]1CC(=O)/N=c1/sc(S(N)(=O)=O)nn1C`
Reply | 0.2

Ask | Supply Ki value. Item: `CC(=O)/C(=C\c1ccc(F)cc1Cl)C(=O)Nc1ccc(S(N)(=O)=O)cc1`
Reply | 0.0527

Ask | Supply Ki value. Item: `O=S(=O)(NO)c1ccc(F)cc1`
Reply | 15

Ask | Supply Ki value. Item: `C[C@H](CCC(=O)Nc1ccc(S(N)(=O)=O)cc1I)[C@H]1CC[C@H]2[C@@H]3[C@@H](O)C[C@@H]4C[C@H](O)CC[C@]4(C)[C@H]3CC[C@]12C`
Reply | 0.067

Ask | Supply Ki value. Item: `CCN(C)C(=S)SNCc1ccc(S(N)(=O)=O)cc1`
Reply | 0.95
